- Tested on: HCV replicon in HUH-7 cells
- method: HCV replicon FRET assay
- Assay type: cell-based, HCV strain 1b
- condition details: Hepatitis C virus, Huh-7; HCV replicon cell assay; numeric values; read-out: EC50 Range
- Source text: An HCV replicon whole cell system was established as described by Lohmann V, Korner F, Koch J, Herian U, Theilmann L, Bartenschlager R., Science 285(5424):110-3 (1999). […] The HCV replicon FRET assay was developed to monitor the inhibitory effects of compounds described in the disclosure on HCV viral replication. […] After 4 days, cells were first assessed for cytotoxicity using alamar Blue (Trek Diagnotstic Systems) for a CC50 reading. […]
Listing of entries alongside the reported pEC50.
Remember the convention: pEC50 equals -log10 of concentration in molar.

Reference set (3 entries):
| compound | pEC50 |
| --- | --- |
| C=C[C@@H]1C[C@]1(NC(=O)[C@@H]1C[C@@H](Oc2ncc(OC)c3ccc(Cl)cc23)CN1C(=O)C(C)Nc1nnnn1-c1ccccc1)C(=O)NS(=O)(=O)C1CC1 (stereo partly shown) | 6.48 |
| C=C[C@@H]1C[C@]1(NC(=O)[C@@H]1C[C@@H](Oc2ncc(OC)c3ccc(Cl)cc23)CN1C(=O)[C@@H](Nc1nc(-c2ccccc2O)cs1)C(C)(C)C)C(=O)NS(=O)(=O)C1CC1 | 7.72 |
| C=C[C@@H]1C[C@]1(NC(=O)[C@@H]1C[C@@H](Oc2ncc(OC)c3ccc(Cl)cc23)CN1C(=O)[C@@H](Nc1nc(-c2ccncc2)cs1)C(C)(C)C)C(=O)NS(=O)(=O)C1CC1 | 8.18 |

Now consider a different compound.
Request: # input compound: C=C[C@@H]1C[C@]1(NC(=O)[C@@H]1C[C@@H](Oc2ncc(OC)c3ccc(Cl)cc23)CN1C(=O)C(Nc1ccc(-c2ccccc2)c(OC)c1)C(C)(C)C)C(=O)NS(=O)(=O)C1CC1 (single isomer, unassigned) [Example 18A] ; wanted: its pEC50
Response: 7.11
